Provenance of the data: paper PMC3147153

- procedure_text: Whole blood pharmacokinetics, LC-MS/MS, noncompartmental analysis
- Assay type: in vivo, patients
- run_conditions: human, whole blood, iv, 50 mg
measured_endpoint: Vd

Task item: I'd like to know its Vd. The compound in question is `CO[C@H]1C[C@@H]2CC[C@@H](C)[C@@](O)(O2)C(=O)C(=O)N2CCCC[C@H]2C(=O)O[C@H]([C@H](C)C[C@@H]2CC[C@@H](OP(C)(C)=O)[C@H](OC)C2)CC(=O)[C@H](C)/C=C(\C)[C@@H](O)[C@@H](OC)C(=O)[C@H](C)C[C@H](C)/C=C/C=C/C=C/1C`
Reply: 235 L
